- System: T-47D breast
- experiment: NCI tumour cell line growth inhibition, 48 h
parameter: TGI (µM)
Give the value, in units of µM, as a plain number.

In plain terms, CC(=O)[O][Hg][CH2]C1(C)COC(C)([CH2][Hg][O]C(C)=O)CO1 (configuration not stated) has a documented TGI of 21.4

In plain terms, C=CCN1C(=O)/C(=C/c2ccc(OC)cc2)N=C1SC1OC(COC(C)=O)C(OC(C)=O)C(OC(C)=O)C1OC(C)=O (configuration not stated) has a documented TGI of 67.5

In plain terms, `CC(=O)[C@]12OC(=O)C3=C1[C@H](CC[C@@H]3C)[C@@H](C)C[C@H]2C=C(C)C` has a documented TGI of 14.4

* * *

Assign TGI to each entry below.
- Tested on: PC-3 prostate
- experiment: NCI tumour cell line growth inhibition, 48 h

In plain terms, `O=C1Nc2ccc(CN3CCOC3=O)cc2/C1=C/c1cc(CN2CCOCC2)c[nH]1` has a documented TGI of > 100 µM

In plain terms, `C=C1C(=O)O[C@H]2[C@H]1CC/C(COC(=O)C(=O)c1c[nH]c3ccc(Cl)cc13)=C\CC[C@@]1(C)O[C@@H]21` has a documented TGI of 3.57 µM

In plain terms, `COc1cc(OC)c2nc(C)c3c(c2c1)OCC3` has a documented TGI of > 100 µM

In plain terms, `CN(C)CCCN1c2ccc(O)cc2Sc2ccc(Cl)cc21` has a documented TGI of 18 µM

In plain terms, `O=C(/C=C/c1ccccc1Br)c1ccccc1` has a documented TGI of 23.5 µM

In plain terms, COc1ccc(C(c2cc(OC)c(OC)c(OC)c2)N2C(=O)CCC2C(=O)O)cc1 (centres undefined) has a documented TGI of > 100 µM

In plain terms, `Cn1nc(S(N)(=O)=O)s/c1=N/S(=O)(=O)c1ccc(N)cc1` has a documented TGI of > 100 µM

In plain terms, `COC1=CC(=O)c2c(n[nH]c2CCNC(=O)OCc2ccccc2)C1=O` has a documented TGI of > 100 µM

In plain terms, `Brc1ccc(N=Nc2ccc3ccccc3n2)cc1` has a documented TGI of > 100 µM

In plain terms, `Cc1ccc(N(/C=C/C(=O)C(F)(F)F)CC(=O)c2ccc(Cl)c(Cl)c2)cc1` has a documented TGI of 20 µM

In plain terms, `C=C(C)CCN(C(=O)OC(C)(C)C)c1cc(C(C)C)co1` has a documented TGI of 99.6 µM

In plain terms, `COC(=O)[C@@H]1[C@H](O)[C@H](C)[C@H](O)[C@H](C)/C=C\C=C(C)C(=O)Nc2c(C)c(OC(C)=O)c3c(c2O)C(=O)C(C)=C2OCOC(=C23)C(C)=C[C@@](C)(O)[C@H](O)[C@@H](C)[C@H]1OC(C)=O` has a documented TGI of > 100 µM

In plain terms, CC(C)(C)OC(=O)NC(Cc1ccc(OCc2ccccc2)cn1)C(=O)O (centres undefined) has a documented TGI of > 100 µM

In plain terms, `c1ccc2c(-c3cnn4cc(-c5ccc(N6CCNCC6)cc5)cnc34)ccnc2c1` has a documented TGI of 1.52 µM

In plain terms, `Cc1ccc(S(=O)(=O)NC(=O)NCC(N)=O)cc1` has a documented TGI of > 100 µM

In plain terms, `[O-]/[N+](=N/c1ncc(-c2ccccc2)cn1)c1ncc(-c2ccccc2)cn1` has a documented TGI of > 100 µM

In plain terms, `COc1ccc2c(c1)C(=O)c1c-2n(CCCN=[N+]=[N-])c(=O)c2cc(N)ccc12` has a documented TGI of > 100 µM

In plain terms, `O=C1/C(=C/c2ccc(OC(=O)c3ccc(Cl)cc3)cc2)CCC/C1=C\c1ccc(OC(=O)c2ccc(Cl)cc2)cc1` has a documented TGI of > 100 µM

In plain terms, `OCc1ncc(-c2ccccc2)s1` has a documented TGI of > 100 µM

In plain terms, CC1(C)N([O-])[N+](=O)C1(Br)c1ccccc1 (centres undefined) has a documented TGI of > 100 µM

In plain terms, Nc1ncc(N)c(NCC2(CO)CC(CCc3ccccc3)C2)n1 (centres undefined) has a documented TGI of 18.9 µM

In plain terms, CNC1=CC(=O)C2=C(C1=O)C1C3=C(C(=O)C(Br)=C(OC)C3=O)C2c2ccccc21 (centres undefined) has a documented TGI of 2.75 µM

In plain terms, `COc1cc2oc(-c3cccc(C(=O)Nc4ccc(C)cc4)c3)cc(=O)c2c(OC)c1OC` has a documented TGI of > 100 µM

In plain terms, `CCOC(=O)CON=c1c2ccccc2ccc2ccccc12` has a documented TGI of > 100 µM

In plain terms, `CCOc1ccc(NC(=O)c2cc3ccccc3cc2O)cc1` has a documented TGI of > 100 µM

In plain terms, `Cc1ccc(S(=O)(=O)N[C@@H](Cc2ccccc2)C(=O)CCl)cc1` has a documented TGI of 22.6 µM

In plain terms, `CC(C)C[C@H]1C(=O)N2CCC[C@H]2[C@]2(O)O[C@](NC(=O)[C@@H]3C=C4c5cccc6[nH]c(Br)c(c56)C[C@H]4N(C)C3)(C(C)C)C(=O)N12` has a documented TGI of > 100 µM

In plain terms, `CCOc1ccc(N=Nc2ccc(-c3ccc(N=Nc4c(O)ccc5cc(S(=O)(=O)O)cc(S(=O)(=O)O)c45)cc3)cc2)cc1` has a documented TGI of > 100 µM

In plain terms, `COC(=O)/C=C/c1ccc2c(c1)[C@H](C(=O)OC)[C@@H](c1ccc(O)cc1)O2` has a documented TGI of > 100 µM

In plain terms, `C=CC[C@@]12CCC(=O)C=C1CCCC2=O` has a documented TGI of > 100 µM

In plain terms, `CCOc1ccc2c(c1)C(=O)c1c-2n(CCCN)c(=O)c2cc([N+](=O)[O-])ccc12` has a documented TGI of 2.14 µM

In plain terms, `COC(=O)c1ccc(NC(N)=NCC(C)(C)COc2ccc(C(F)(F)F)cc2)nc1` has a documented TGI of 2.75 µM

In plain terms, CC1=NN(C(=O)CC(=O)Nc2ccc(Cl)cc2)C(=O)C1N=Nc1ccc(S(=O)(=O)c2ccc(N=NC3C(=O)N(C(=O)CC(=O)Nc4ccc(Cl)cc4)N=C3C)cc2)cc1 (centres undefined) has a documented TGI of > 100 µM

In plain terms, `O=C(c1ccc(Cl)c(Cl)c1)N(C(=O)N1CCN(c2ccccc2)CC1)S(=O)(=O)c1ccccc1` has a documented TGI of 93.5 µM

In plain terms, `N#CCN1CCN(CC#N)CCN(CC#N)CCN(CC#N)CC1` has a documented TGI of > 100 µM

In plain terms, `CCCCCCCCc1ccc(CCC(N)(CO)CO)cc1` has a documented TGI of 3.41 µM

In plain terms, `COc1ccc(OC)c([N+](=O)[O-])c1-c1nc2sc(C)c(C)n2c1/C=N/N=C(N)N` has a documented TGI of > 100 µM

In plain terms, `N=C(N)SCCN1CCCCC1` has a documented TGI of 45.8 µM

In plain terms, `COc1ccc(Nc2ncc(-c3ccccc3)o2)cc1OC` has a documented TGI of > 25 µM

* * *

- System: UACC-62 melanoma
- experiment: NCI tumour cell line growth inhibition, 48 h
parameter: TGI (µM)
Give the value, in units of µM, as a plain number.

In plain terms, N#CSCC1CC(O)(c2ccccc2)CC(c2ccc(Cl)cc2)O1 (stereo not given) has a documented TGI of 10.9

In plain terms, `COC(=O)c1ccc(NC(N)=NCC(C)(C)COc2ccc(C(F)(F)F)cc2)nc1` has a documented TGI of 3.1

In plain terms, `Brc1ccc(N=Nc2ccc3ccccc3n2)cc1` has a documented TGI of 43.5

* * *

Assign TGI to each entry below.
- Tested on: HOP-62 NSCLC
- experiment: NCI tumour cell line growth inhibition, 48 h
*1 amine or outer side, *2 acyl side, *3 side chain or, on linkers, in order; H or OH if unused. Where a SMILES comes first, the peptide text is derived from it. Bridges are numbered along the chain shown (N, C = ends). [ ]: non-standard residue; d: D form. X59 = COc1c(N[*:1])cccc1C(=O)O[C@H](C(=O)[C@H](C)C(=O)[*:2])C(C)C; X58 = CC(C)C[C@H](C(=O)[*:2])C(C)C(=O)C1CCCN1[*:1]; NMeY = CN[C@@H](Cc1ccc(O)cc1)C(=O)O; Lac = C[C@H](O)C(=O)O

In plain terms, `Cc1ccc(/C=C2\CCCCCC2=O)cc1` has a documented TGI of > 100 µM

In plain terms, O=C(Nc1ccccc1[N+](=O)[O-])C(=O)C(C(=O)c1ccccc1-c1ccccc1)C1OC(=O)c2ccccc21 (centres undefined) has a documented TGI of 36 µM

In plain terms, `C[N+]1(C)C/C(=C\c2ccc(O)cc2)C(=O)/C(=C/c2ccc(O)cc2)C1` has a documented TGI of > 100 µM

In plain terms, COC(=O)C1=CO[C@@H](OC2OC(CO)C(O)C(O)C2O)[C@@H]2[C@H](C)[C@@H](O)[C@@H](O)[C@]12O (some centres undefined) has a documented TGI of > 100 µM

In plain terms, `COc1ccc2c(c1)C(=O)c1c-2n(CCCN=[N+]=[N-])c(=O)c2cc(N)ccc12` has a documented TGI of > 100 µM

In plain terms, `CCNC1=C(NC(=O)c2ccc(OC)cc2)C(=O)c2ccccc2C1=O` has a documented TGI of > 100 µM

In plain terms, `Clc1ccc(-c2nc(C(Cl)Cl)nc3cc(-c4ccccc4)nn23)cc1` has a documented TGI of 4.57 µM

In plain terms, COc1ccc(C[C@H]2C(=O)O[C@H](C)[C@H](NC(=O)[C@@H](CC(C)C)C(C)C(=O)C3CCCN3C(=O)[C@H](C)O)C(=O)Nc3cccc(c3OC)C(=O)O[C@@H](C(C)C)C(=O)[C@H](C)C(=O)N[C@@H](CC(C)C)C(=O)N3CCC[C@H]3C(=O)N2C)cc1 (some centres undefined) (H-[Lac][X58]T[X59]LP[NMeY](Me); ester 3-C) has a documented TGI of > 12.5 µM

In plain terms, `COc1ccc(OC)c([N+](=O)[O-])c1-c1nc2sc(C)c(C)n2c1/C=N/N=C(N)N` has a documented TGI of > 100 µM
